Test: Inhibition of trypsin
The source made the active and inactive calls. No cut-off for these calls is given here.
experimental_endpoint: Activity

Recorded Activity, per entry:
{"compound_structure": "C=C1CC[C@H]2C(C)(C)[C@@H](O)CC[C@]2(C)[C@H]1CC[C@H]1C(C)=CC[C@H]2C(C)(C)C(=O)CC[C@]12C", "experimental_endpoint": "Activity", "result": "inactive"}
{"compound_structure": "C=C(C)[C@@H]1CC=C(C)[C@H](CC[C@H]2C(=C)CC[C@H]3C(C)(C)C(=O)CC[C@]23C)[C@@]1(C)CCC(=O)OC", "experimental_endpoint": "Activity", "result": "inactive"}
{"compound_structure": "C=C1CC[C@H]2C(C)(C)C(=O)CC[C@]2(C)[C@H]1CC[C@H]1C(C)=CC[C@H]2C(C)(C)[C@@H](O)CC[C@]12C", "experimental_endpoint": "Activity", "result": "inactive"}
{"compound_structure": "C=C(C)[C@@H]1CC=C(C)[C@H](CC[C@H]2C(=C)CC[C@H]3C(C)(C)C(=O)CC[C@]23C)[C@@]1(C)CCC(=O)O", "experimental_endpoint": "Activity", "result": "inactive"}

Name the recorded Activity for C=C(C)[C@@H]1CCC(=C)[C@H](CC[C@H]2C(C)=CC[C@@H](C(=C)C)[C@]2(C)CCC(=O)O)[C@@]1(C)CCC(=O)O .
inactive
